- Procedure details: Pharmacokinetics of compound (I), alone versus in combination with (III) and ritonavir, healthy subjects
- Assay type: in vivo, human
- Condition: human, in vivo; 50 mg (I) + 300 mg (III) + 20 mg RTV qd for 14 days; same 10 healthy volunteers; geometric mean
Reported endpoint: Cmax (µg/mL)
// return numeric value only (unit: µg/mL, not printed)

So what's the measured Cmax for this one? COc1ccc2c(O[C@@H]3C[C@H]4C(=O)N[C@]5(C(=O)NS(=O)(=O)C6CC6)C[C@H]5/C=C\CCCCN(C)C(=O)[C@@H]4C3)cc(-c3nc(C(C)C)cs3)nc2c1C 1.46

###

- Procedure details: Pharmacokinetics of compound (III), alone versus in combination with (I) and ritonavir
- Format: in vivo, human
- Condition: human, in vivo; 300 mg (III) + 50 mg (I) + 20 mg (II) qd; geometric mean (CV%)
- From the text: The pharmacokinetic variables for the compound of formula (I) and (III) administered alone where compared when they were co-administered in a combination of (I), (II) and (III). All tables indicate Geometric mean (CV %) pharmacokinetic parameters and might be the result of multiple studies. The compounds are indicated by their respective numbers (I, II or III) in the tables below. […]
Reported endpoint: Cmax (µg/mL)
// return numeric value only (unit: µg/mL, not printed)

So what's the measured Cmax for this one? COc1ccc2c(c1)C=C1Cn3c-2c(C2CCCCC2)c2ccc(cc23)C(=O)NS(=O)(=O)N(C)CCOCCN(C)C1=O 6.57

###

- Procedure details: Pharmacokinetics of compound (I), alone versus in combination with (III) and ritonavir, healthy subjects
- Assay type: in vivo, human
- Condition: human, in vivo; (I) alone, 150 mg qd for 14 days; 10 healthy subjects; geometric mean; read-out: AUC24 h
- Excerpt: The pharmacokinetic variables for the compound of formula (I) and (III) administered alone where compared when they were co-administered in a combination of (I), (II) and (III). All tables indicate Geometric mean (CV %) pharmacokinetic parameters and might be the result of multiple studies. The compounds are indicated by their respective numbers (I, II or III) in the tables below. […]
Reported endpoint: AUC(0-t)
Answer shape: numeric part, then the unit.

So what's the measured AUC(0-t) for this one? COc1ccc2c(O[C@@H]3C[C@H]4C(=O)N[C@]5(C(=O)NS(=O)(=O)C6CC6)C[C@H]5/C=C\CCCCN(C)C(=O)[C@@H]4C3)cc(-c3nc(C(C)C)cs3)nc2c1C 71200 ng·h/mL

###

- Procedure details: Pharmacokinetics of compound (I), alone versus in combination with (III) and ritonavir, healthy subjects
- Assay type: in vivo, human
- Condition: human, in vivo; (I) alone, 150 mg qd for 14 days; 10 healthy subjects; geometric mean
Reported endpoint: Cmax
Answer shape: numeric part, then the unit.

So what's the measured Cmax for this one? COc1ccc2c(O[C@@H]3C[C@H]4C(=O)N[C@]5(C(=O)NS(=O)(=O)C6CC6)C[C@H]5/C=C\CCCCN(C)C(=O)[C@@H]4C3)cc(-c3nc(C(C)C)cs3)nc2c1C 4750 ng/mL

###

- Procedure details: Pharmacokinetics of compound (III), alone versus in combination with (I) and ritonavir
- Assay type: in vivo, human
- Condition: human, in vivo; 300 mg (III) + 50 mg (I) + 20 mg (II) qd; geometric mean (CV%); read-out: AUC24 h
Reported endpoint: AUC(0-t) (ng·h/mL)
// return numeric value only (unit: ng·h/mL, not printed)

So what's the measured AUC(0-t) for this one? COc1ccc2c(c1)C=C1Cn3c-2c(C2CCCCC2)c2ccc(cc23)C(=O)NS(=O)(=O)N(C)CCOCCN(C)C1=O 52200
